Test system: VHSV (F1Wa05 strain)
Test: Cytopathic effect (CPE) reduction assay, VHSV in FHM cells
Details: fathead minnow, FHM cells infected with VHSV (F1Wa05 strain)
property: selectivity ratio at 96 h

Give its selectivity ratio at 96 h value. Item: NC(=O)c1ncn([C@@H]2O[C@H](CO)[C@@H](O)[C@H]2O)n1 [Ribavirin]
3560

* * *

Assay: in vitro
Format: cell-based
Conditions: Chinook salmon
property: CC50 (µM)
Please give a number only; it is taken to be in µM.

Give its CC50 value. Item: NC(=O)c1ncn([C@@H]2O[C@H](CO)[C@@H](O)[C@H]2O)n1 [Ribavirin]
121
